# System: MOLT-4 leukemia
# EXPERIMENT_DESCRIPTION: NCI-60 one-dose screen, 48 h (100 = growth as untreated, 0 = no growth, -100 = all killed)
# MEASUREMENT_CONDITIONS: 10 µM unless noted
This is part of a sample that, as a whole, favours compounds with a hit. Of some 83,000 tested, about 20% had one in any assay.
QUANTITY: growth (%)
One number for each entry, in %.

Example entries begin here.
INSERT INTO results (smiles_str, result_unit, reported_value) VALUES
  ('CCOC(=O)c1c2c(n3ccccc13)C(=O)c1ncccc1C2=O', '%', 31.9),
  ('CN(C)c1ccc(C(=NO)c2ccc(N(C)C)cc2)cc1', '%', 31.7);

Each of the following entries comes with a recorded value; kindly state growth for each.
1. COc1ccc2nc3ccccc3c(NCc3ccc(F)cc3)c2c1
2. CC(C)(C)C(=O)/C=C/c1ccc([N+](=O)[O-])cc1
3. N=C(N)c1ccc(-c2ccc(-c3ccc(Cl)cc3)o2)o1
4. CS(=O)(=O)Nc1cncc(-c2ccc3ncnc(Nc4ccc(F)c(Cl)c4)c3c2)c1
5. COc1ccc2c(c1)c(-c1nc(-c3cn(C)c4ncccc34)cs1)cn2CCO
6. COc1cccc2c(N=NC(=O)c3ccc(S(N)(=O)=O)cc3)c(O)[nH]c12
7. COc1ccc2c(c1)c(-c1ccc(-c3cn(C)c4ccc(OC)cc34)[nH]1)cn2C
8. CCOC(=O)c1c(NC(=O)c2ccc(OC)cc2)sc2c(CN(C)C)c(O)ccc12

Completion:
1. 0.544
2. 75.4
3. -28.9
4. -22.8
5. 58.2
6. 109
7. 27.7
8. 61.2

----------
# System: T-47D breast
# EXPERIMENT_DESCRIPTION: NCI-60 one-dose screen, 48 h (100 = growth as untreated, 0 = no growth, -100 = all killed)
# MEASUREMENT_CONDITIONS: 10 µM unless noted
This is part of a sample that, as a whole, favours compounds with a hit. Of some 83,000 tested, about 20% had one in any assay.
QUANTITY: growth (%)
Give bare numbers, in %.

Reference set, count: 4
INSERT INTO results (smiles_str, reported_value) VALUES
  ('O=C(Cn1nnc2ccccc21)Nc1ccc(-c2nc3ccccc3s2)cc1', 66.9),
  ('CCOC(=O)C1CCN(c2ccc(N3C[C@@H](CNCc4ccc(C(=N)N)cc4)OC3=O)cc2)CC1', 96.2),
  ('O=C(CBr)CN1C(=O)c2ccccc2C1=O', 93.9),
  ('Oc1c(CN2CCCC2)cc(COCc2ccccc2)c2cccnc12', 5.66);

Field: next molecule
Prompt: Which growth value is on record for `Cc1nn(-c2ccccc2)c(/N=C/N(C)C)c1/C=C/C(=O)c1ccc(Cl)cc1` ?
Completion: 101

----------
# Tested on: SW-620 colon
# EXPERIMENT_DESCRIPTION: NCI-60 one-dose screen, 48 h (100 = growth as untreated, 0 = no growth, -100 = all killed)
# MEASUREMENT_CONDITIONS: 10 µM unless noted
About 83,000 compounds went through this panel and 20% of them were active in at least one assay; those are over-represented in the sample as a whole.
Mark criterion met only for growth values smaller than 90%; exact matches and larger values are criterion not met.

INSERT INTO measurements (compound, discrete_label) VALUES
  ('COC1=CC(c2ccc[nH]2)=N/C1=C\c1[nH]c(C)c(CC(=O)OCc2ccccc2)c1C', 'criterion met'),
  ('Clc1ccc(-c2cn3ccsc3n2)c(Cl)c1Cl', 'criterion not met'),
  ('Cn1cc(-c2ccc3cc(-c4ccc(CC(=O)Nc5cc(C(C)(C)C)on5)cc4)cnc3c2)cn1', 'criterion met'),
  ('O=C1c2cccnc2C(=O)c2c1c(C(=O)OCCCN1CCCCC1)c1ccccn21', 'criterion met'),
  ('COc1cc(Nc2c3ccc(Cl)cc3nc3ccc(OC)cc23)c2ncccc2c1', 'criterion met'),
  ('O=C(O)c1cccc(N/C=C/C(=O)c2cc3cc(Br)ccc3oc2=O)c1', 'criterion not met');

Prompt: Threshold test, growth < 90%: `CCOC(=O)C/C(=N\Nc1cc(=O)[nH]c2ccc(Cl)cc12)C(=O)OCC`
Completion: criterion not met

Prompt: In the record for `COc1cccc(/C=C/C(=O)c2cc3c(N)c(C(=O)Nc4cccc(Cl)c4C)sc3nc2C)c1` , is growth less than 90%?
Completion: criterion met

Prompt: For this compound, is growth lower than 90%? `C=C(CN1CC=CCC1)[C@@H]1CC[C@]2(CO)CC[C@]3(C)[C@H](CC[C@@H]4[C@@]5(C)CC[C@H](O)C(C)(C)[C@@H]5CC[C@]43C)[C@@H]12`
Completion: criterion not met

Prompt: Field: below-cutoff. Rule: recorded growth strictly less than 90%. Subject: `CC1=C(C(=O)n2c3ccccc3c3ccccc32)C(c2cccc([N+](=O)[O-])c2)C(C(=O)n2c3ccccc3c3ccccc32)=C(C)N1`
Completion: criterion not met

Prompt: Dear colleague, could you confirm whether growth of CC(/C=C1\SC(=S)N(CC(=O)NC(Cc2c[nH]c3ccccc23)C(=O)O)C1=O)=C\c1ccccc1 (centres undefined) falls below 90%? Thanks.
Completion: criterion not met
